Values compiled from PubChem BioAssay (NCI).

Hi there, I'd appreciate the recorded growth for every entry that follows.
- System: MDA-MB-468 breast
- experimentDescription: NCI-60 one-dose screen, 48 h (100 = growth as untreated, 0 = no growth, -100 = all killed)
- appliedConditions: 10 µM unless noted
Compounds without any hit were thinned out: in the full panel of roughly 83,000, 20% have a hit. Activity calls are given as the source filed them. How the source made its calls: active means growth percent below 10; inactive means the rest.

Ask | Please look up its growth: N#C/C(=C\C=C\c1ccc(-c2cc(Cl)ccc2Cl)o1)c1nc2ccccc2s1
Reply | 109% (inactive)

Ask | Please look up its growth: CCN(CC)c1ccc(/C=C2\Oc3ccc(O)c(I)c3C2=O)cc1
Reply | 61.6% (inactive)

Ask | Please look up its growth: CC/C(=C/c1cc(OC)ccc1O)c1ccc2cc(OC)ccc2[o+]1
Reply | 45.8% (inactive)

Ask | Please look up its growth: CC(C)=CCC[C@](C)(O)[C@H]1CC[C@]2(C)[C@@H]1CC[C@@H]1[C@@]3(C)CC/C(=N/O)C(C)(C)[C@@H]3CC[C@]12C
Reply | -26.3% [100 µM] (active)

Ask | Please look up its growth: COc1ccc(-c2cc(C(=O)N3N=C(c4ccc(N)cc4)CC3c3ccc(Cl)cc3)c3cc(OC)ccc3n2)cc1 (centres undefined)
Reply | 95.8% (inactive)

Ask | Please look up its growth: Cn1cc(-c2nonc2-c2cn(C)c3ccc(Br)cc23)c2ccccc21
Reply | 42.8% (inactive)

Ask | Please look up its growth: C/C(=N\Nc1ccc([N+](=O)[O-])cc1[N+](=O)[O-])c1ccc(Br)cc1
Reply | 108% (inactive)

Ask | Please look up its growth: C[C@H](Nc1ncnc2ccc(-c3cnc(Cl)c(NS(C)(=O)=O)c3)cc12)c1ccccc1
Reply | -62.4% (active)

Ask | Please look up its growth: C[N+](C)(C)c1ncnc2nc[nH]c12
Reply | 90.3% (inactive)

Ask | Please look up its growth: CC(C)=NOC(C)C(=O)O (centres undefined)
Reply | 106% (inactive)

Ask | Please look up its growth: NNc1ccc(S(N)(=O)=O)cc1
Reply | 100% (inactive)

Ask | Please look up its growth: O=C1C=CC(Nc2ccccc2[N+](=O)[O-])C1Nc1ccccc1[N+](=O)[O-] (centres undefined)
Reply | -97.4% (active)

Ask | Please look up its growth: CN(C)Cc1ccc(NC(=O)c2cncc(C#Cc3cnc(N)c4ncccc34)c2)cc1F
Reply | 72.3% (inactive)

Ask | Please look up its growth: O=[N+]([O-])c1ccc(Sc2ncccn2)c([N+](=O)[O-])c1
Reply | 5.95% (active)

Ask | Please look up its growth: CCOC(=O)C(=Cc1ccc(C#N)cc1)C(=O)OCC
Reply | 15.6% (inactive)

Ask | Please look up its growth: CC(Nc1ncnc2ccc(-c3cnc4cnccn34)cc12)c1ccccc1 (centres undefined)
Reply | -21% (active)

Ask | Please look up its growth: Fc1ccc(-c2nc(-c3ccc(-c4nc5ccc(F)cc5[nH]4)cc3)no2)cc1
Reply | 56.2% (inactive)

Ask | Please look up its growth: O=C1C(Br)=C(c2ccccc2)C(=O)C(Br)=C1c1ccccc1
Reply | 92% (inactive)

Ask | Please look up its growth: S=C(c1cccs1)N1CCN(c2cccc(Cl)c2)CC1
Reply | 85.8% (inactive)

Ask | Please look up its growth: FC(F)(F)Oc1cccc(-c2cc(NCCCCCCNc3cc(-c4cccc(OC(F)(F)F)c4)nc4ccc(N5CCCC5)cc34)c3cc(N4CCCC4)ccc3n2)c1
Reply | -68.1% (active)

Ask | Please look up its growth: CCOC(=O)c1c(Nc2ccccc2)nn2c(-c3ccc(Cl)cc3)ccnc12
Reply | 65.1% (inactive)

Ask | Please look up its growth: CCCCCCCC/C=C\CCCCCCCCOc1cccc(CC(=O)NCC[N+]2(C)CCCCC2)c1
Reply | 52.6% (inactive)

Ask | Please look up its growth: C#C[C@]1(O)CCC2C3CCc4cc(O)ccc4C3CC[C@@]21C (some centres undefined)
Reply | 12.1% (inactive)

Ask | Please look up its growth: Nc1nc(SCc2cccnc2)c2ncn(C3OC(CO)C(O)C3O)c2n1 (centres undefined)
Reply | 97.4% (inactive)

Ask | Please look up its growth: CC1c2ccccc2-c2ccccc2N1C (centres undefined)
Reply | 103% (inactive)

Ask | Please look up its growth: CCOC(=O)c1nn(-c2ccc(C)cc2)c(=O)c2c(N)c(C#N)c(-c3ccc(OC)cc3)cc12
Reply | 102% (inactive)

Ask | Please look up its growth: COc1cc(OC)c(/C=C/c2ccc3ccccc3[n+]2C)c(OC)c1
Reply | -13.7% (active)

Ask | Please look up its growth: COC(=O)/C(CCC=C(C)C)=C1\[C@@H](OC(C)=O)C[C@@]2(C)[C@H]1C[C@@H](O)[C@H]1[C@@]3(C)CC[C@H](NCCN)[C@@H](C)[C@@H]3CC[C@@]12C
Reply | 58.6% (inactive)

Ask | Please look up its growth: NNc1ncnc2c1ncn2C1OC(CO)C(O)C1O (centres undefined)
Reply | 58.8% (inactive)

Ask | Please look up its growth: CC1(C)CC2=C3C=C[C@@H]4[C@@]5(C)CC[C@H](O)C(C)(C)[C@@H]5CC[C@@]4(C)[C@]3(C)CC[C@@]2(C(=O)O)CC1=O
Reply | 81.4% (inactive)

Ask | Please look up its growth: COc1ccc(-c2nc(Nc3ccc(F)cc3)nc(Nc3ccc4c(c3)nc(C)n4Cc3ccccc3)n2)cc1
Reply | 28.4% (inactive)

Ask | Please look up its growth: CN1CCN(CC(=O)Nc2cccc(-n3cc(-c4ccncc4)c(-c4ccc(Cl)c(O)c4)n3)c2)CC1
Reply | 10.7% (inactive)

Ask | Please look up its growth: COc1cc(Cn2c(-c3ccccc3)c(Cl)c3c2-c2oncc2CC3)cc(OC)c1
Reply | 114% (inactive)

Ask | Please look up its growth: COc1cc2cc(Oc3ccc(NC(=O)c4ccc(Cl)c(C(F)(F)F)c4)cc3)c(C)nc2cc1OC
Reply | 6.44% (active)

Ask | Please look up its growth: CN(C)C(=O)OCc1nc2c(N3CCOCC3)nc(-c3ccccc3)nc2n1C
Reply | -61.1% (active)

Ask | Please look up its growth: O=C1/C(=C/c2ccc(F)cc2)CN(C(=O)CCN2CCC(=NO)CC2)C/C1=C\c1ccc(F)cc1
Reply | -41.6% (active)

Ask | Please look up its growth: Cc1c(C2=CCCCC2)c2ccccn2c1C(=O)c1cccc(S(=O)(=O)N2CCOCC2)c1
Reply | 51.5% (inactive)

Ask | Please look up its growth: CCN1CCN(CCOc2ccc(CNc3ccc4nc(CCC5CCCCC5)[nH]c4c3)cc2)CC1
Reply | 35% (inactive)

Ask | Please look up its growth: O=c1cc(-c2ccccc2)[nH]c2ccccc12
Reply | 59.5% (inactive)
